For each record, write down the corresponding growth inhibition.
Test: NCI Yeast Anticancer Drug Screen. Data for the bub3 strain (AID 167)
Details: S. cerevisiae bub3 mutant strain, at 1.2 µM, active compounds read high
The panel holds about 79,000 compounds, 15% with a hit somewhere; the sample as a whole holds those more often.
Write the number in % without appending the unit.

Could you tell me which growth inhibition is on file for `O=C(c1ccccc1)[C@H]1Nc2ccc(Cl)cc2[C@H]2OCCC[C@@H]12` ? -22

Could you tell me which growth inhibition is on file for `Cc1nc2sc3c(c2c(=O)o1)CCCC3` ? 6

Could you tell me which growth inhibition is on file for CCCCCCCCN1COCC(COc2ccccc2C)OC1 (stereo unspecified) ? -9

Could you tell me which growth inhibition is on file for `CC1(C)CC(=O)C(C=NC(=S)C(N)=S)=C(O)C1` ? -30

Could you tell me which growth inhibition is on file for `Cc1ccc(Nc2n[nH]c(=S)s2)c(C)c1` ? 3

Could you tell me which growth inhibition is on file for `Cn1c(-c2ccc(/C=N\N3CCN(/N=C/c4ccc(-c5c[n+]6ccsc6n5C)cc4)CC3)cc2)c[n+]2ccsc12` ? 17

###

For each record, write down the corresponding growth inhibition.
Test: NCI Yeast Anticancer Drug Screen. Data for the rad14 strain (AID 159);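 also: 0% = growth of vehicle-treated control cultures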
Details: S. cerevisiae rad14 strain growth inhibition; at 11.0 µM; active compounds read high
The panel holds about 79,000 compounds, 15% with a hit somewhere; the sample as a whole holds those more often.
Write the number in % without appending the unit.

Could you tell me which growth inhibition is on file for `COc1cccc(/C=C2\S/C(=N/Nc3nc(-c4ccc([N+](=O)[O-])cc4)cs3)NC2=O)c1O` ? 6

Could you tell me which growth inhibition is on file for `S=C(NCc1ccccn1)N/N=C/c1ccccn1` ? 99

Could you tell me which growth inhibition is on file for `CCOP(=O)(OCC)/C(C#N)=C\c1cccc2ccccc12` ? -25

Could you tell me which growth inhibition is on file for O=C(O)c1ccccc1C(=O)OC1CCc2ccccc2C1 (stereo unspecified) ? -7

Could you tell me which growth inhibition is on file for `O=C1C[C@H]2[C@H](c3ccc(Br)cc3)[C@H]3C(=O)c4ccccc4NC(=O)[C@@H]3[C@@]2(O)c2ccccc2N1` ? 16

Could you tell me which growth inhibition is on file for `COc1ccc2cc3c4cc5c(cc4cc[n+]3cc2c1OC)OCO5` ? 78

###

Test: NCI Yeast Anticancer Drug Screen. Data for the wt1 strain (AID 149);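 also: 0% = growth of vehicle-treated wt1 cultures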
Conditions: S. cerevisiae wt1 strain (SPY 50644) growth inhibition; at 100.0 µM
This is part of a sample that, as a whole, favours compounds with a hit. Of some 79,000 tested, about 15% had one in any assay. Activity calls are given as the source filed them. Rule as the data show it: active = growth inhibition above about 70%; inactive = the rest.
Answer with one of the outcomes given here: T (active), F (inactive)

How did this test come out for `N#Cc1nc(Nc2ccc(Cl)cc2)sc1N` ? T

How did this test come out for `Cc1cc(Cl)ccc1NC(=O)/C(Cl)=C(/Cl)C(=O)O` ? T

How did this test come out for `c1ccc2c(c1)ccn2CCc1c[nH]c2ccccc12` ? T

How did this test come out for CC(C(=O)N1C(=O)N(C(=O)C(C)C(O)c2ccccc2)C2CCCCC21)C(O)c1ccccc1 (stereo not given) ? F

How did this test come out for N#CSCC1COc2ccccc2O1 (stereo not given) ? T

How did this test come out for `N#C/C(=C\NC(=S)Nc1ccc(S(N)(=O)=O)cc1)C(=O)c1ccc2ccccc2c1` ? F

How did this test come out for `COc1ccc2cc3c4cc5c(cc4cc[n+]3cc2c1OC)OCO5` ? T

How did this test come out for O=C(O)c1cc2c(cc1S(=O)(=O)O)C1C(C3C2C2(Cl)C(Cl)=C(Cl)C3(Cl)C2(Cl)Cl)C2(Cl)C(Cl)=C(Cl)C1(Cl)C2(Cl)Cl (stereo not given) ? T

How did this test come out for `CCS(=O)(=O)Nc1ccc(Nc2c3ccccc3nc3ccccc23)c(OC)c1` ? F

How did this test come out for `CN1CCN(C(=O)c2cccc3cccc(C(=O)O)c23)CC1` ? F

###

Assay: NCI Yeast Anticancer Drug Screen. Data for the CLN2oe strain (AID 163);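 also: 0% = growth of vehicle-only control cultures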
Details: S. cerevisiae CLN2oe strain, at 33.0 µM
This is part of a sample that, as a whole, favours compounds with a hit. Of some 79,000 tested, about 15% had one in any assay. Activity calls are given as the source filed them. Cut-off read from the data, not from the text of the source: active = growth inhibition above about 70%; inactive = the rest.
Answer with one of the outcomes given here: active, inactive

How did this test come out for `CCCCCCCN1C(=O)c2ccccc2C1=O` ? inactive

How did this test come out for `O=C1c2ccccc2-c2cc3ccccc3c(=O)n21` ? inactive

How did this test come out for `Cc1cccc2c(NCCCN(C)C)c3c([N+](=O)[O-])ccc(C)c3nc12` ? active

How did this test come out for `CC(=O)CCC1=C(C)C(=O)C(=O)C(C)=C1O` ? inactive

How did this test come out for `CCCCCCCC/C=C\CCCCCCCCN` ? active

How did this test come out for C[C@H](CCC1=NC(C)(C)CO1)C1CCC2[C@@H]3C(O)C[C@@H]4CC(O)CC[C@]4(C)C3CC[C@@]21C (some centres undefined) ? inactive

How did this test come out for `O=C(c1ccccc1)[C@H]1Nc2ccc(Cl)cc2[C@H]2OCCC[C@@H]12` ? inactive

How did this test come out for `S=C1N(c2ccc(Cl)cc2)C2=C(N=Nc3ccccc3)C(=Nc3ccccc3S2)N1c1ccccn1` ? inactive

How did this test come out for `CC(C)Cc1ncc(CCCN=C(N)N)[nH]c1=O` ? inactive

How did this test come out for `COc1ccc2nc3cccc([N+](=O)[O-])c3c(NCCNCCO)c2c1` ? inactive

How did this test come out for `CC1(C2CC2)C(C#N)(C#N)C1(C#N)C#N` ? inactive

How did this test come out for `O=C(NCCCCN(CCCNC(=O)C(F)(F)F)Cc1ccccc1)C(F)(F)F` ? inactive

How did this test come out for `Oc1c2c(c(O)c3ccccc13)C1(N=N2)c2ccccc2Oc2ccccc21` ? active

How did this test come out for `CCOC(=O)/C(=C\c1ccc(F)cc1)C(C)=O` ? active

How did this test come out for CC(=O)O[C@H]1CC[C@@]2(C)C(=CC[C@@H]3C2CC[C@]2(C)C(=O)NC(=O)CC32)C1 (some centres undefined) ? inactive

How did this test come out for NC(CS)C(=O)NCCNc1ccc(NCCNC(=O)C(N)CS)c2c1C(=O)c1c(O)ccc(O)c1C2=O (centres undefined) ? active

How did this test come out for `CCCNCC(=O)O[C@]1(CC)C(=O)OCc2c1cc1n(c2=O)Cc2cc3ccccc3nc2-1` ? active

How did this test come out for `Cc1c2cc[n+](CCO)cc2c(C)c2c1[nH]c1ccc(O)cc12` ? inactive

How did this test come out for `ClCCCOc1c(Cl)cc(Cl)cc1Cl` ? inactive

How did this test come out for `COC(=O)c1ccccc1N=NNc1cccc(SC)c1` ? active

How did this test come out for `O=C1Nc2ccc(Br)cc2C1=Nc1ccc(Cl)cc1` ? inactive

How did this test come out for `Cc1ccc(Nc2n[nH]c(=S)s2)c(C)c1` ? inactive

How did this test come out for `CCOC(=O)Nc1ccc(C)c(NC(=O)OCC)c1` ? inactive

How did this test come out for `O=C(Nc1cccs1)c1ccccc1` ? inactive

###

Assay: NCI Yeast Anticancer Drug Screen. Data for the rad52 strain (AID 147);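 also: 0% = growth of vehicle-treated control cultures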
Details: S. cerevisiae rad52 mutant growth inhibition; at 100.0 µM
This is part of a sample that, as a whole, favours compounds with a hit. Of some 79,000 tested, about 15% had one in any assay. Activity calls are given as the source filed them. Cut-off read from the data, not from the text of the source: active = growth inhibition above about 70%; inactive = the rest.
Answer with one of the outcomes given here: TRUE (active), FALSE (inactive)

How did this test come out for `CCCCCCCCCCCNC=O` ? TRUE

How did this test come out for `CC/C(=C(\c1ccccc1)c1ccc(OCC[N+](C)(C)C)cc1)c1ccccc1` ? TRUE

How did this test come out for `Oc1ccc(N=Nc2ccc(Cl)cc2)cc1` ? TRUE

How did this test come out for `Cc1cc(C)c(S(=O)(=O)c2ccc(Cl)cc2)c(C)c1` ? FALSE

How did this test come out for O=C1SS(=O)c2ccccc21 (centres undefined) ? TRUE

How did this test come out for CCN1CCC(O)(c2ccc(Oc3ccc(Cl)cc3)cc2)C(C(=O)c2ccc(Oc3ccc(Cl)cc3)cc2)C1 (centres undefined) ? FALSE

How did this test come out for `COc1cc([N+](=O)[O-])c2ncccc2c1Br` ? FALSE

How did this test come out for `O=C(Nn1c(-c2ccccc2)nc2ccccc2c1=O)c1ccc(CS)cc1` ? TRUE

How did this test come out for `CNC(=O)OCc1c2ccncc2c(C)c2c1[nH]c1ccccc12` ? TRUE

How did this test come out for `COC(=O)c1cnc(Cl)c([N+](=O)[O-])c1` ? TRUE

How did this test come out for `Cc1cc2nc3ccccc3n2c2ccccc12` ? FALSE

How did this test come out for `c1c[nH]c(CN2CCN(Cc3ncc[nH]3)CC2)n1` ? TRUE

How did this test come out for CC1CCC(C2=CSC3CCCCC3N2)CC1 (centres undefined) ? TRUE

How did this test come out for `O=[N+]([O-])/C=C/c1cc2ccc3ccccc3c2[nH]1` ? TRUE

How did this test come out for `O=C1C[C@H]2[C@H](c3ccc(Br)cc3)[C@H]3C(=O)c4ccccc4NC(=O)[C@@H]3[C@@]2(O)c2ccccc2N1` ? FALSE

How did this test come out for `O=C(CCSC1=NCCCN1)c1ccc(F)cc1` ? TRUE

How did this test come out for O=C1NC(c2cccc(OCc3ccccc3)c2)Nc2ccccc21 (centres undefined) ? FALSE

How did this test come out for O=S(=O)(NC1CCCC(c2ccccc2)C1)c1ccccc1 (centres undefined) ? TRUE

How did this test come out for `CCC[CH2][Sn]([CH2]CCC)([CH2]CCC)/[C](=C/[Si](C)(C)c1ccccc1)c1ccc2c(c1)OCO2` ? TRUE

How did this test come out for `CN(C)/C(=N/C(=S)Nc1ccccc1)SCc1ccccc1` ? FALSE

How did this test come out for `CCOc1ccc(N)c(S)c1` ? TRUE

How did this test come out for Cc1cccc(C)c1NC(=O)CCC(=O)C(C)C(=O)c1ccc(O)cc1 (centres undefined) ? FALSE

How did this test come out for `COc1ccc2cc3c4cc5c(cc4cc[n+]3cc2c1OC)OCO5` ? TRUE

How did this test come out for `CNC(=O)OCc1c(COC(=O)NC)c(C)n(-c2ccc(Br)cc2)c1C` ? TRUE

These measurements were taken from PubChem BioAssay (NCI).
